Parameter: melting point. Scope: all listed entries.

Req: Endpoint output: melting point of `Cc1cn(-c2ccc(NC(=O)c3ccc(Cl)c(C#Cc4cnc(NC5CC5)nc4)c3)cc2C(F)(F)F)cn1` . Value?
Resp: 141 to 143 °C

Req: Endpoint output: melting point of O=C(O)c1ccc2c(c1)S(=O)c1ccccc1CC2 (stereo not given) . Value?
Resp: 261 to 265 °C

Req: Endpoint output: melting point of CC1(C)CC(=O)C(S(=O)Cc2ccc(F)cc2)=C(O)C1 (stereo not given) . Value?
Resp: 122 to 125 °C

Req: Endpoint output: melting point of `C#Cc1ccc(-c2ccccc2)c(C)c1` . Value?
Resp: 57 to 59 °C

###

Parameter: melting point. Scope: all listed entries.

In [3]: df
Out[3]:
                               molecule   assay_result
0  COC(=O)c1[nH]c2c(C)ccc(C)c2c1NC(C)=O  221 to 222 °C
1     Cn1ccnc1Sc1ccc(Cl)cc1[N+](=O)[O-]  143 to 145 °C
2      COc1ccc(CCCN2CCc3cc(O)ccc3C2)cc1  163 to 164 °C

Req: Endpoint output: melting point of `O=C(Nc1ccc(F)cc1F)c1nccnc1Oc1cccc(C(F)(F)F)c1` . Value?
Resp: 107 to 109 °C

Req: Endpoint output: melting point of COc1ccc2c(c1)C1=C(SCC3(CCN(CC(O)COc4ccc(C(C)(C)C)cc4)CC3)O1)C(=O)C2=O (stereo unspecified) . Value?
Resp: 153 to 156 °C

Req: Endpoint output: melting point of `CN(N)C(=S)Nc1ccc(C#N)cc1` . Value?
Resp: 178 to 179 °C

Req: Endpoint output: melting point of `COc1ccc(F)c(C=C2c3ccccc3CCc3ccccc32)c1` . Value?
Resp: 111 °C

Req: Endpoint output: melting point of `Nc1ccc(C(=O)N2Cc3cccn3Cc3ccccc32)cc1` . Value?
Resp: 166 to 168 °C

Req: Endpoint output: melting point of `COc1ccc(Cc2c(C(=O)O)n(CC3CC3)c3ccccc23)cc1` . Value?
Resp: 162 to 163 °C

Req: Endpoint output: melting point of `CN(NC(=O)OCc1ccccc1)C(=O)NCC(F)F` . Value?
Resp: 79 to 82 °C

Req: Endpoint output: melting point of `OC[C@H](O)[C@@H](O)[C@H](O)[C@H](O)C=NN(Cc1ccccc1)c1ccccc1` . Value?
Resp: 124 to 128 °C

Req: Endpoint output: melting point of `BrCc1cccc(-c2cccc(CBr)n2)n1` . Value?
Resp: 180 to 181 °C

Req: Endpoint output: melting point of `COc1cc(N)c(Cl)cc1-c1nn(C2CCN(CCc3ccccc3)CC2)c(=O)o1` . Value?
Resp: 184 °C

Req: Endpoint output: melting point of `CC(=O)N1C(C)(C)CC(OC(=O)C(Cc2cc(C(C)(C)C)c(O)c(C(C)(C)C)c2)(Cc2cc(C(C)(C)C)c(O)c(C(C)(C)C)c2)C(C)=O)CC1(C)C` . Value?
Resp: 165 to 166 °C

Req: Endpoint output: melting point of `Cn1nc(N)c2c(-c3ccccc3)cc(N3CCOCC3)nc21` . Value?
Resp: 149 to 152 °C

Req: Endpoint output: melting point of CC(C#CC1CCCC1)N(O)C(N)=O (stereo unspecified) . Value?
Resp: 140 to 141 °C

Req: Endpoint output: melting point of `COc1ccc2c(c1)C(C)(C)NC(=O)O2` . Value?
Resp: 178 to 180 °C

Req: Endpoint output: melting point of `COC(=O)c1ccc(Cl)c(CN2CCN(C)C2=O)c1Cl` . Value?
Resp: 59 °C

Req: Endpoint output: melting point of `O=C(NC12CC3CC(CC(C3)C1)C2)OCCc1cccs1` . Value?
Resp: 67 to 69 °C

Req: Endpoint output: melting point of CCCCCc1c(C(C)C)cc(C(C)C)c(C(C)O)c1-c1ccc(F)cc1 (stereo unspecified) . Value?
Resp: 126 °C

Req: Endpoint output: melting point of `CNc1nc(-c2cccc(NC(=O)c3cccnc3N3CCCC3)c2)c2cc(OC)c(OC)cc2n1` . Value?
Resp: 135 to 137 °C

###

Parameter: melting point. Scope: all listed entries.

// worked examples, melting point included
>>> print(df.to_string())
                                   compound   assay_result
0  COc1ccc(C#CC(C)N(O)C(N)=O)cc1 (configuration not stated)  144 to 146 °C
1  O=[N+]([O-])c1ccccc1-c1ccc(CNc2nc(C(F)(F)F)nc3c2CCCC3)cc1  150 to 151 °C
2                 N#Cc1ccc(-c2nc(CO)no2)cc1  138 to 140 °C
3      O=C1CCc2ccc(O)c(c2)Oc2ccc(cc2)C=CCO1  148 to 151 °C
4  CCn1c(=O)c2c(nc(/C=C/c3cc(O)c4c(c3)OCO4)n2C)n(CC)c1=O  265 to 268 °C
5    CC(C)(C)[Si](C)(C)Oc1ccc(NC(=O)CCl)cc1  107 to 108 °C
6  O=c1ccn(-c2cccc(C(F)(F)F)c2)nc1-c1nncn1-c1ccccc1  103 to 104 °C
7  CCCCCCCCCCCCCCCC(N=C=O)S(=O)(=O)c1ccc2ccccc2c1 (configuration not stated)  152 to 155 °C

Req: Endpoint output: melting point of `CCCc1nc(C(OCC)OCC)cc(NC(c2ccccc2)(c2ccccc2)c2ccccc2)c1F` . Value?
Resp: 111 to 112 °C

Req: Endpoint output: melting point of `Cc1cccc2c1nc(-c1c(F)cccc1F)n2Cc1ccccc1` . Value?
Resp: 112 to 117 °C

Req: Endpoint output: melting point of `Cc1cc(Cl)cc(C(=O)C(=O)O)c1NC(=O)c1cc(Br)nn1-c1ncccc1Cl` . Value?
Resp: 139 to 142 °C

Req: Endpoint output: melting point of `O=c1cccc2c([N+](=O)[O-])cccc2n1` . Value?
Resp: 139 to 141 °C

Req: Endpoint output: melting point of `NC(=O)Cc1ccccc1OCCn1ccnc1` . Value?
Resp: 116 to 118 °C

Req: Endpoint output: melting point of `N#CCCCSc1nccc(NC(=S)NCC(F)(F)F)n1` . Value?
Resp: 125 to 126 °C

Req: Endpoint output: melting point of `Cc1nc2c(N)nc3ccccc3c2n1OC(C)C` . Value?
Resp: 243 °C

Req: Endpoint output: melting point of `CS(=O)(=O)Nc1cccc(Br)n1` . Value?
Resp: 90 to 94 °C

Req: Endpoint output: melting point of CNC(=O)N1N=C(c2ccc(N)cc2)c2cc(Cl)c(Cl)cc2CC1C (configuration not stated) . Value?
Resp: 224 to 225 °C

Req: Endpoint output: melting point of CC(C)(CCc1ccccc1)NCC(O)CO (configuration not stated) . Value?
Resp: 74 to 77 °C

Req: Endpoint output: melting point of CN(C)c1ccc(C2=NC[C@@H](OC(=O)Nc3ccccc3)[C@H](c3ccccc3)O2)cc1 (racemic) . Value?
Resp: 172 °C

Req: Endpoint output: melting point of `CN(C)c1ccc(N=Nc2ccc(C(=O)Nc3ccc4[nH]nnc4c3)cc2)cc1` . Value?
Resp: 246 °C

Req: Endpoint output: melting point of O=C(NC1CCSc2cc(C(=O)O)ccc21)OCc1ccccc1 (configuration not stated) . Value?
Resp: 202 to 205 °C

Req: Endpoint output: melting point of `CC1(C(=O)c2c[nH]c3ncc(Br)nc23)CCCCCC1` . Value?
Resp: 198 °C

Req: Endpoint output: melting point of `FC(F)=C(F)CCSc1nnc(-c2ccc(Cl)cc2)s1` . Value?
Resp: 68 to 69 °C

###

Parameter: melting point. Scope: all listed entries.

// worked examples, melting point included
>>> df
                                   compound     assay_result
0  COc1cc(C=O)c([N+](=O)[O-])cc1OCCCCCCOC(C)=O  79.8 to 81.5 °C
1  COC(=O)[C@H](CC(C)C)NC(=O)[C@@H](O)[C@@H](Cc1ccc(SC)cc1)NC(=O)OCc1ccccc1    130 to 132 °C
2  CCOC(=O)C1COc2cc(OC(C)=O)ccc2O1 (stereo unspecified)            66 °C
3      CN(C)C=Nc1nc2c(s1)C(=O)C(=CN(C)C)CC2    185 to 186 °C
4  C=C(C)OC(=O)N1c2ccncc2NC(=O)C1C (racemic)    170 to 171 °C

Req: Endpoint output: melting point of O=C(Oc1ccccc1)N1CCC2(CC1)SC(c1ccc(Cl)c(Cl)c1)c1ccccc12 (stereo unspecified) . Value?
Resp: 200 to 202 °C

Req: Endpoint output: melting point of `CN(C)CCN1CCC(Nc2nc3ccccc3n2Cc2ccc(F)cc2)CC1` . Value?
Resp: 166 °C

Req: Endpoint output: melting point of `c1csc(-c2nc(COc3ccc(CCCn4ccnc4)cn3)co2)c1` . Value?
Resp: 86 to 87 °C

Req: Endpoint output: melting point of `Cc1nccc(N2CCC(O)(C(=O)N3CCN(C(=O)c4ccc(Br)cc4)CC3)CC2)n1` . Value?
Resp: 114 to 117 °C

Req: Endpoint output: melting point of `CCCCCc1c(C(C)C)nc(C(C)C)c(CO)c1-c1ccc(F)c(F)c1` . Value?
Resp: 106 to 107 °C

Req: Endpoint output: melting point of Cc1ccnc(C2C(=O)CC(C(C)C)CC2=O)c1 (stereo unspecified) . Value?
Resp: 104 to 106 °C

Req: Endpoint output: melting point of `c1ccc(OCCSCc2nnc(-c3ccc(OCc4ccccn4)cc3)o2)cc1` . Value?
Resp: 115 °C

Req: Endpoint output: melting point of `O=C1O[C@@H](c2ccccc2)N(C(=O)OCc2ccccc2)[C@H]1Cc1ccccc1` . Value?
Resp: 120 to 122 °C

Req: Endpoint output: melting point of `CCCCCCCCCCCCCCCCCCc1c(C(=O)OCC)[nH]c(C)c1C` . Value?
Resp: 78 to 80 °C

Req: Endpoint output: melting point of `c1ccc(Cn2ncc3c2Cc2cn[nH]c2-3)cc1` . Value?
Resp: 61 to 72 °C

Req: Endpoint output: melting point of `CCCCCCCCCCCCC#CC(O)(CCCCC(=O)O)CCCCC(=O)O` . Value?
Resp: 65 to 66 °C

Req: Endpoint output: melting point of `Cl/C(=C\n1ccnc1)c1ccc(Cl)cc1Cl` . Value?
Resp: 59.1 °C

Req: Endpoint output: melting point of `CCOP(=O)(OCC)C(Nc1ccccn1)P(=O)(OCC)OCC` . Value?
Resp: 63 to 66 °C

Req: Endpoint output: melting point of `COC(C)=CC(=O)Nc1cccc(C(F)(F)F)c1` . Value?
Resp: 90 °C

Req: Endpoint output: melting point of `Cc1ccnc(C(=O)c2[nH]c3cc(Cl)ccc3c2NC(=O)CCN(C)C)c1` . Value?
Resp: 170 to 171 °C

Req: Endpoint output: melting point of CC(C)(C)C(=O)OCOC(=O)[C@H]1C[C@H](NC(=O)Cc2ccccc2)c2c(Cl)cc(Cl)cc2N1 (relative stereo) . Value?
Resp: 162 to 163 °C

Data origin: a melting point compilation (Tetko et al.; mined from patent text by program, amines drawn as free bases though some values may be those of a salt)
